src = the Human Domainome abundance scans (Beltran et al. 2025)

B1: Double-stranded RNA-binding protein Staufen homolog 1, residues 183 to 249; numbered along this chain, O95793 (parent)
chain: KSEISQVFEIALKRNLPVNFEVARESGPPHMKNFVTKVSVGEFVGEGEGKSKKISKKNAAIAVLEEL

Variants of: B1
Assay: abundance fitness (aPCA) (normalised: wild type 0, dead -1); higher = more abundant; growth selection in yeast, the domain comes from the species named
Details: Homo sapiens

{"variantKey": "F34R", "abundance fitness": -0.74}
{"variantKey": "E9T", "abundance fitness": -0.197}
{"variantKey": "Q6E", "abundance fitness": -0.021}
{"variantKey": "E48C", "abundance fitness": 0.064}
{"variantKey": "F20N", "abundance fitness": -0.779}
{"variantKey": "E65F", "abundance fitness": -0.737}
{"variantKey": "R14A", "abundance fitness": -0.204}
{"variantKey": "I61N", "abundance fitness": -0.181}
{"variantKey": "I54T", "abundance fitness": -0.132}
{"variantKey": "A59P", "abundance fitness": -1.08}
{"variantKey": "I54E", "abundance fitness": 0.09}
{"variantKey": "I61D", "abundance fitness": -0.53}
{"variantKey": "V7P", "abundance fitness": -0.68}
{"variantKey": "V7I", "abundance fitness": -0.24}
{"variantKey": "V63P", "abundance fitness": -0.577}
{"variantKey": "P29Y", "abundance fitness": -0.259}
{"variantKey": "L64S", "abundance fitness": -0.475}
{"variantKey": "E66L", "abundance fitness": 0.114}
{"variantKey": "N58H", "abundance fitness": -0.284}
{"variantKey": "P29M", "abundance fitness": -0.114}
{"variantKey": "G27V", "abundance fitness": -0.457}
{"variantKey": "G49F", "abundance fitness": -1.14}
{"variantKey": "F34P", "abundance fitness": -0.458}
{"variantKey": "L16Y", "abundance fitness": -0.454}
{"variantKey": "E42F", "abundance fitness": -0.355}
{"variantKey": "S55T", "abundance fitness": -0.815}
{"variantKey": "I61T", "abundance fitness": -0.292}
{"variantKey": "E3W", "abundance fitness": -0.309}
{"variantKey": "E65T", "abundance fitness": -0.082}
{"variantKey": "K37P", "abundance fitness": -0.756}
{"variantKey": "E66C", "abundance fitness": -0.037}
{"variantKey": "L16K", "abundance fitness": -0.432}
{"variantKey": "A11I", "abundance fitness": -1.08}
{"variantKey": "S39M", "abundance fitness": -0.056}
{"variantKey": "A62H", "abundance fitness": -0.242}
{"variantKey": "G47M", "abundance fitness": -0.874}
{"variantKey": "L64M", "abundance fitness": -0.218}
{"variantKey": "G45D", "abundance fitness": -0.645}
{"variantKey": "H30Y", "abundance fitness": -0.208}
{"variantKey": "A11N", "abundance fitness": -0.564}
{"variantKey": "N33Y", "abundance fitness": -0.255}
{"variantKey": "L12N", "abundance fitness": 0.081}
{"variantKey": "V40E", "abundance fitness": -0.555}
{"variantKey": "P28Y", "abundance fitness": -0.342}
{"variantKey": "M31L", "abundance fitness": -0.098}
{"variantKey": "S39G", "abundance fitness": -0.55}
